Target: HDAC1 (Homo sapiens)
Construct: purchased BPS Bioscience
Test: In vitro HDAC1 enzymatic activity inhibition (Lys-Ac-AMC substrate)
Assay type: biochemical
Conditions: Table 1, graded; read-out: HDAC1 IC50
Measured IC50, listed per entry for reference.

Sample records with IC50:
* CC(C)=CCN(CC=C(C)C)c1ccc(-c2nc(N3CCOCC3)c3nc(CN(C)c4ncc(C(=O)NO)cn4)n(C)c3n2)cc1 [CLJ-49] | < 100 nM
* CN(Cc1nc2c(N3CCOCC3)nc(-c3cccc(S(=O)(=O)NCO)c3)nc2n1C)c1ncc(C(=O)NO)cn1 [CLJ-59] | < 100 nM
* CN(Cc1nc2c(N3CCOCC3)nc(-c3ccccc3NS(C)(=O)=O)nc2n1C)c1ncc(C(=O)NO)cn1 [CLJ-53] | < 100 nM
* CCN(Cc1nc2c(N3CCOCC3)nc(-c3ccc(OC)nc3)nc2n1C)c1ncc(C(=O)NO)cn1 [CLJ-5] | 100 to 1000 nM
* CN(Cc1nc2c(N3CCOCC3)nc(-c3ccc(S(C)(=O)=O)cc3)nc2n1C)c1ncc(C(=O)NO)cn1 [CLJ-57] | < 1 nM
* COc1ccc(-c2nc(N3CCNCC3)c3nc(CN(C)c4ncc(C(=O)NO)cn4)n(C)c3n2)cc1 [CLJ-69] | < 100 nM

Could you now look at the following compound, please?
[Q] Fill in: IC50 of CCCc1ccc(-c2nc(N3CCOCC3)c3nc(CN(C)c4ncc(C(=O)NO)cn4)n(C)c3n2)cc1 [CLJ-62] is ___
[A] < 100 nM

====

Target: HDAC7 (Homo sapiens, UniProt Q8WUI4)
Construct: purchased BPS Bioscience 50007
Sequence (Q8WUI4 518-952 limits assumed): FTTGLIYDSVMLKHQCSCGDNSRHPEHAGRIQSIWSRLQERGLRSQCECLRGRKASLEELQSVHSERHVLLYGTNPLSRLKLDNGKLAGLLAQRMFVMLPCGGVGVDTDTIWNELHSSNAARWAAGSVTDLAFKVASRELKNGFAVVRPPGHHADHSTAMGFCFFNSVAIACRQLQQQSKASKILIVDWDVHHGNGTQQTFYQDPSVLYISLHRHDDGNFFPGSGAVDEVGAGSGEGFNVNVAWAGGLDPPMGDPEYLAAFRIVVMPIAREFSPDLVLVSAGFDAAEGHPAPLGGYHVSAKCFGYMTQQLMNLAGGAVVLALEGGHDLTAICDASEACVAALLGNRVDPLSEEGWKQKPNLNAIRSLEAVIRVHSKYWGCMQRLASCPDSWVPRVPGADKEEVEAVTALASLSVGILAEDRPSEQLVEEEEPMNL
Experiment: HDAC7 enzyme inhibition (Lys-Ac-AMC)
Assay type: biochemical
Conditions: Table 4, graded
pIC50: −log10 of the molar value.
METRIC: pIC50

Previously resolved entries follow.
- COc1ccc(-c2nc(N3CCOCC3)c3nc(CN(C)c4ncc(C(=O)NO)cn4)n(C)c3n2)cn1: 5.00 to 6.00
- CN(Cc1nc2c(N3CCOCC3)nc(-c3ccc(N)cc3)nc2n1C)c1ncc(C(=O)NO)cn1: 5.00 to 6.00
- COc1ccc(-c2nc(N3CCOCC3)c3nc(CN(C)c4ncc(C(=O)NO)cn4)n(C)c3n2)cc1: 5.00 to 6.00

# evaluate next
[Q] Recorded pIC50 of CN(Cc1nc2c(N3CCOCC3)nc(-c3cnc(N)nc3)nc2n1C)c1ncc(C(=O)NO)cn1 , please.
[A] 6.00 to 7.00

====

Target: HDAC1 (Homo sapiens)
Construct: purchased BPS Bioscience
Experiment: In vitro HDAC1 enzymatic activity inhibition (Lys-Ac-AMC substrate)
Assay type: biochemical
Settings: Table 1, graded; read-out: HDAC1 IC50
IC50 values for the molecules below.

Check out these entries, answers already filled in.
- CN(C)CCn1cc(-c2nc(N3CCOCC3)c3nc(CN(C)c4ncc(C(=O)NO)cn4)n(C)c3n2)cn1: < 100 nM
- CCCn1c(CN(C)c2ncc(C(=O)NO)cn2)nc2c(N3CCOCC3)nc(-c3ccc(N)cc3)nc21: 1000 to 10000 nM
- CN(Cc1nc2c(N3CCOCC3)nc(-c3cccc(C(N)=O)c3)nc2n1C)c1ncc(C(=O)NO)cn1: < 100 nM

[Q] What value of measured IC50 is listed for CN(Cc1nc2c(N3CCOCC3)nc(-c3ccc(NC(=O)OC(C)(C)C)cc3)nc2n1C)c1ncc(C(=O)NO)cn1 ?
[A] < 100 nM

====

Consider the following pIC50 values measured on HDAC2 (Homo sapiens, UniProt Q92769).
Sequence (Q92769 whole entry, species assumed): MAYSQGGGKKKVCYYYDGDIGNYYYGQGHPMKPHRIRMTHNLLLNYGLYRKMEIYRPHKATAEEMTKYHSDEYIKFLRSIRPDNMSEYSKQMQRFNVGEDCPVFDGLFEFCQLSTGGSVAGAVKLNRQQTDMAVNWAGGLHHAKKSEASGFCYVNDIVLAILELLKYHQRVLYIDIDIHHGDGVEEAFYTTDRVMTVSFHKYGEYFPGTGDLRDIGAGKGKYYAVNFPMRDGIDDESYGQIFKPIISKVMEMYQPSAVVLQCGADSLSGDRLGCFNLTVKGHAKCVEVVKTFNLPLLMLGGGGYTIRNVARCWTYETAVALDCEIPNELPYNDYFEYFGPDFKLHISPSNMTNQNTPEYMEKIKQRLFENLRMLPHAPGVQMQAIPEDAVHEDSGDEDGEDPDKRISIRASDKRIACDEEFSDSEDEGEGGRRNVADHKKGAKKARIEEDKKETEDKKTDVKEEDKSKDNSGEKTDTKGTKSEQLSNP
pIC50: −log10 of the molar value.

Below, each entry is followed by its recorded pIC50 result.
- CN(Cc1nc2c(N3CCOCC3)nc(-c3ccc(N)cc3)nc2n1C)c1ncc(C(=O)NO)cn1: 7.00 to 9.00
- CN(Cc1nc2c(N3CCOCC3)nc(-c3cnc(N)nc3)nc2n1C)c1ncc(C(=O)NO)cn1: 7.00 to 9.00
- COc1ccc(-c2nc(N3CCOCC3)c3nc(CN(C)c4ncc(C(=O)NO)cn4)n(C)c3n2)cn1: 7.00 to 9.00

Then there is this molecule:
[Q] Given the entry COc1ccc(-c2nc(N3CCOCC3)c3nc(CN(C)c4ncc(C(=O)NO)cn4)n(C)c3n2)cc1 , report its measured pIC50.
[A] 7.00 to 9.00

====

# pIC50 listing for each entry below
Target: HDAC1 (Homo sapiens)
Construct: purchased BPS Bioscience
Test: In vitro HDAC1 enzymatic activity inhibition (Lys-Ac-AMC substrate)
Type: biochemical
Details: read-out: inhibition value IC50 to the activity of HDAC1
pIC50: −log10 of the molar value.

Known results for compounds:
* CN(Cc1nc2c(N3CCOCC3)nc(-c3ccc[nH]3)nc2n1C)c1ncc(C(=O)NO)cn1 | > 9.00
* CCN(Cc1nc2c(N3CCOCC3)nc(-c3ccc(OC)nc3)nc2n1C)c1ncc(C(=O)NO)cn1 | > 7.00
* CN(Cc1nc2c(N3CCOCC3)nc(-c3ccc(S(C)(=O)=O)cc3)nc2n1C)c1ncc(C(=O)NO)cn1 | > 9.00
* CN(Cc1nc2c(N3CCOCC3)nc(-c3ccc4c(c3)OCO4)nc2n1C)c1ncc(C(=O)NO)cn1 | > 9.00
* CN(Cc1nc2c(N3CCOCC3)nc(-c3ccc4c(c3)OCCO4)nc2n1C)c1ncc(C(=O)NO)cn1 | > 9.00

[Q] Request the reported pIC50 associated with CN(Cc1nc2c(N3CCOCC3)nc(-c3ccc(N)cc3)nc2n1C)c1ncc(C(=O)NO)cn1
[A] > 9.00

====

Target: HDAC1 (Homo sapiens, UniProt Q13547)
Construct: purchased BPS Bioscience
Sequence (Q13547 whole entry, species assumed): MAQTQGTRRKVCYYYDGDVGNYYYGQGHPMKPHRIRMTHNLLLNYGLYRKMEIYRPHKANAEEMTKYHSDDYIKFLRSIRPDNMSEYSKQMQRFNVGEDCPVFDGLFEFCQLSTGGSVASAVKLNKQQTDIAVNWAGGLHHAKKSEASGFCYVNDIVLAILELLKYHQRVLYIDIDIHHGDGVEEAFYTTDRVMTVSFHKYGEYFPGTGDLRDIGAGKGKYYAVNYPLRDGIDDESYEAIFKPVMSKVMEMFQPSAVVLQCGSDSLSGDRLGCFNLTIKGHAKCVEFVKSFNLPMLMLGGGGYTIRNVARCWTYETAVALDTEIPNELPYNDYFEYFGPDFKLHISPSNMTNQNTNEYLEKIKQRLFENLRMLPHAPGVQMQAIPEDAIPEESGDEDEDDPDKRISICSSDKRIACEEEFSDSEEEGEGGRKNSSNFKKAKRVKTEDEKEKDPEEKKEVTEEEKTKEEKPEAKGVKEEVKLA
Test: In vitro HDAC1 enzymatic activity inhibition (Lys-Ac-AMC substrate)
Assay type: biochemical
Details: Table 1, graded; read-out: HDAC1 IC50
Experimental: Determining the inhibition capability to HDAC activity through the substrate method of fluorophore 4-amino-7-coumarin coupled Ac-peptide (Lys-Ac-AMC). HDAC1 protein is purchased from BPS Bioscience Company; the reaction buffer system is a modified tris(hydroxymethyl)aminomethane (TRIS) buffer (pH7.0). All small molecule compounds are prepared and dissolved by 100% DMSO (dimethyl sulfoxide). […]
IC50 listing for selected molecules.

Here is how some molecules turned out for IC50.
• CN(Cc1nc2c(N3CCOCC3)nc(-c3cccc(C(=O)NCCO)c3)nc2n1C)c1ncc(C(=O)NO)cn1 = < 0.1 µM
• CN(C)c1ccc(-c2nc(N3CCOCC3)c3nc(CN(C)c4ncc(C(=O)NO)cn4)n(C)c3n2)cc1 = < 0.001 µM
• CN(Cc1nc2c(N3CCOCC3)nc(-c3cccc(O)c3)nc2n1C)c1ncc(C(=O)NO)cn1 = < 0.001 µM
• CN(Cc1nc2c(N3CCOCC3)nc(-c3ccc(C(C)(C)C)cc3)nc2n1C)c1ncc(C(=O)NO)cn1 = < 0.1 µM
• CN(Cc1nc2c(N3CCOCC3)nc(-c3ccc[nH]3)nc2n1C)c1ncc(C(=O)NO)cn1 = < 0.001 µM
• CN(Cc1nc2c(N3CCOCC3)nc(-c3ccc(N)nc3)nc2n1C)c1ncc(C(=O)NO)cn1 = < 0.1 µM
• COc1ccc(-c2nc(N3CCOCC3)c3nc(CN(C)c4ncc(C(=O)NO)cn4)n(C(C)C)c3n2)cc1 = 0.1 to 1 µM

Consider the additional molecule presented here.
[Q] Lab request: please report IC50 under test system HDAC1 (Homo sapiens, UniProt Q13547) for Cc1cscc1-c1nc(N2CCOCC2)c2nc(CN(C)c3ncc(C(=O)NO)cn3)n(C)c2n1
[A] < 0.1 µM

====

Items are presented alongside their recorded IC50.
Molecular target: PI3Kβ (Homo sapiens)
Construct: purchased Millipore 14-603-K
Sequence (P42338 whole entry, species assumed): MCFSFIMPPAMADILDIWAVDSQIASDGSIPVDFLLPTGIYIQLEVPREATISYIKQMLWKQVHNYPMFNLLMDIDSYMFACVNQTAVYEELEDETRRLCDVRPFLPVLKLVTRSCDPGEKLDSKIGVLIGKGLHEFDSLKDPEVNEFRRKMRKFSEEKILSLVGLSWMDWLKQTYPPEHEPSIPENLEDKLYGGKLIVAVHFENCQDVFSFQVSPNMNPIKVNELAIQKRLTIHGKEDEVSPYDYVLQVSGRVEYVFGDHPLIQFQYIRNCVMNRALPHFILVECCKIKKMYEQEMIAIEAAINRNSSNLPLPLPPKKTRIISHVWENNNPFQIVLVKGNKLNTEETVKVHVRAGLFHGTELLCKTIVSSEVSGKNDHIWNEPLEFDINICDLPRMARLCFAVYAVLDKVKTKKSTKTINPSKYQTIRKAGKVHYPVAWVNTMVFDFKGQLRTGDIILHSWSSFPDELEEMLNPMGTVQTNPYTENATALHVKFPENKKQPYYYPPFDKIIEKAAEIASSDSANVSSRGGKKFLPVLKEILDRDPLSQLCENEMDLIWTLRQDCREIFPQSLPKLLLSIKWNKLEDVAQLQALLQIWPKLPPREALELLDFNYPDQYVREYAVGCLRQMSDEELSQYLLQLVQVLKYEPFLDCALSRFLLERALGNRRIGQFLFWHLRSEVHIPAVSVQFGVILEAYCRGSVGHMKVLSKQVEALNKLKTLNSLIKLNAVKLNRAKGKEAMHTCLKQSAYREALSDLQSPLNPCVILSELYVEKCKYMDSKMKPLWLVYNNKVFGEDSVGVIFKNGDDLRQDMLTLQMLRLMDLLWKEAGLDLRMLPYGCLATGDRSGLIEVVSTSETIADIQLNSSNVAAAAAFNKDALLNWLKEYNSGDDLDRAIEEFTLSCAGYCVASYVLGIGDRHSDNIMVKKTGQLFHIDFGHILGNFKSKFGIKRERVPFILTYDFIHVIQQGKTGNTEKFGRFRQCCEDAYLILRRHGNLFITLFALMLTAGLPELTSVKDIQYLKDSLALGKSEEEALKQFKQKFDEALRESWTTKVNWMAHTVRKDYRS
Sequence (P27986 whole entry partner, species assumed): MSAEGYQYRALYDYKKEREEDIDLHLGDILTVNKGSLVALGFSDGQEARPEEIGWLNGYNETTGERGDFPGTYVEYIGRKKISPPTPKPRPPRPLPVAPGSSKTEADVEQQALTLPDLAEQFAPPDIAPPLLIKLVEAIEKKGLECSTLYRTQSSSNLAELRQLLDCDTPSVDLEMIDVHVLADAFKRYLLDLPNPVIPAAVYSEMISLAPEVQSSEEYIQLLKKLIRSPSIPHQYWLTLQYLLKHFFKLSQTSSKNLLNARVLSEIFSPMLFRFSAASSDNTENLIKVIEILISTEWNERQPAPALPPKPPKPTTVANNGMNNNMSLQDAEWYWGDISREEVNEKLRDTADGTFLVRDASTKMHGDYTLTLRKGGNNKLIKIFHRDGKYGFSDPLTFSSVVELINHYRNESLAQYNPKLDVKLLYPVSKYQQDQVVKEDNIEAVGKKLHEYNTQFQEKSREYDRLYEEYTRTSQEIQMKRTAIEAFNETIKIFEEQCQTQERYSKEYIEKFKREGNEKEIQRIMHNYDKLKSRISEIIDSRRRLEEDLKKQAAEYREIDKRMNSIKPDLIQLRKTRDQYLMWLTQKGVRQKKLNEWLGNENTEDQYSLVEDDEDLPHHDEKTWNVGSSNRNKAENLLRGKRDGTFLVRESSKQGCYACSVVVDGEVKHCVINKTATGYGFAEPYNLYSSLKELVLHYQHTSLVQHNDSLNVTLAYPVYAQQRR
Assay: PI3Kβ activity inhibition (ADP-Glo)
Format: biochemical
Settings: Table 4, graded

* COc1ccc(-c2nc(N3CCOCC3)c3nc(CN(C)c4ncc(C(=O)NO)cn4)n(C)c3n2)cc1 | > 10 µM
* CN(Cc1nc2c(N3CCOCC3)nc(-c3ccc(N)cc3)nc2n1C)c1ncc(C(=O)NO)cn1 | > 10 µM
* CN(Cc1nc2c(N3CCOCC3)nc(-c3ccncc3)nc2n1C)c1ncc(C(=O)NO)cn1 | > 10 µM
* COc1ccc(-c2nc(N3CCOCC3)c3nc(CN(C)c4ncc(C(=O)NO)cn4)n(C)c3n2)cn1 | 1 to 10 µM
* Cc1[nH]c2ccccc2c1CCNCc1ccc(/C=C/C(=O)NO)cc1 [LBH589, panobinostat, reference compound] | > 10 µM

[Q] // returns reported IC50 for input CN(Cc1nc2c(N3CCOCC3)nc(-c3cnc(N)nc3)nc2n1C)c1ncc(C(=O)NO)cn1
[A] 0.001 to 0.1 µM
